Listed here are compounds together with their documented IC50.
Test system: Plasmodium falciparum
assay.overview: Antimalarial activity against chloroquine-resistant Plasmodium falciparum W2 after 72 hrs by MSF assay
Type: functional, organism-based
assay.setup: W2, 72 h
measurement.label: IC50 (nM)

>>> recorded_value("COc1ccncc1CNCCCNc1ccnc2cc(Cl)ccc12")
86.9
>>> recorded_value("Fc1ccc(CNCCNc2ccnc3cc(Cl)ccc23)cc1")
45.8
>>> recorded_value("Clc1ccc2c(NCCCNCc3ccc(Br)cc3)ccnc2c1")
5.93
>>> recorded_value("Clc1ccc2c(NCCNCc3cccnc3)ccnc2c1")
225
>>> recorded_value("Clc1ccc2c(NCCCNCc3ccccc3)ccnc2c1")
52.2
>>> recorded_value("C[C@@H]1CC[C@H]2[C@@H](C)C(=O)O[C@@H]3O[C@@]4(C)CC[C@@H]1[C@]32OO4")
6.7
>>> recorded_value("Fc1ccc(CNCCCNc2ccnc3cc(Cl)ccc23)cc1")
49.4
>>> recorded_value("Clc1ccc2c(NCCCNCc3cnccc3Cl)ccnc2c1")
73
>>> recorded_value("Clc1ccc2c(NCCCNCc3ccncc3)ccnc2c1")
204
>>> recorded_value("Clc1ccc2c(NCCNCc3ccncc3)ccnc2c1")
375
>>> recorded_value("COc1ccncc1CNCCNc1ccnc2cc(Cl)ccc12")
19
>>> recorded_value("Clc1ccc2c(NCCNCc3cnccc3Cl)ccnc2c1")
141
>>> recorded_value("CC(C)(C)c1ccc(CNCCCNc2ccnc3cc(Cl)ccc23)cc1")
48.4
>>> recorded_value("Clc1ccc2c(NCCNCc3ccc(Br)cc3)ccnc2c1")
9.47
>>> recorded_value("COc1ccc(CNCCCNc2ccnc3cc(Cl)ccc23)cc1")
56.2
>>> recorded_value("Clc1ccc2c(NCCNCc3ccccc3)ccnc2c1")
10.9
>>> recorded_value("COc1ccc(CNCCNc2ccnc3cc(Cl)ccc23)cc1")
14.3
>>> recorded_value("CC(C)(C)c1ccc(CNCCNc2ccnc3cc(Cl)ccc23)cc1")
42.4
>>> recorded_value("Clc1ccc2c(NCCCNCc3cccnc3)ccnc2c1")
260

====

As shown below, each of these compounds has a reported selectivity ratio value.
assay.overview: Selectivity index, ratio of IC50 for human HepG2 cells to IC50 for Plasmodium falciparum W2
Assay type: toxicity, cell-based
assay.setup: read-out: Ratio IC50
measurement.label: selectivity ratio

>>> recorded_value("Clc1ccc2c(NCCCNCc3ccccc3)ccnc2c1")
56
>>> recorded_value("COc1ccc(CNCCCNc2ccnc3cc(Cl)ccc23)cc1")
86
>>> recorded_value("Clc1ccc2c(NCCCNCc3cnccc3Cl)ccnc2c1")
52
>>> recorded_value("Clc1ccc2c(NCCNCc3cnccc3Cl)ccnc2c1")
46
>>> recorded_value("Fc1ccc(CNCCNc2ccnc3cc(Cl)ccc23)cc1")
350
>>> recorded_value("Fc1ccc(CNCCCNc2ccnc3cc(Cl)ccc23)cc1")
110
>>> recorded_value("Clc1ccc2c(NCCNCc3cccnc3)ccnc2c1")
426
>>> recorded_value("Clc1ccc2c(NCCCNCc3ccncc3)ccnc2c1")
176
>>> recorded_value("CC(C)(C)c1ccc(CNCCNc2ccnc3cc(Cl)ccc23)cc1")
245
>>> recorded_value("Clc1ccc2c(NCCNCc3ccc(Br)cc3)ccnc2c1")
695
>>> recorded_value("Clc1ccc2c(NCCNCc3ccncc3)ccnc2c1")
409
>>> recorded_value("COc1ccncc1CNCCCNc1ccnc2cc(Cl)ccc12")
57
>>> recorded_value("CC(C)(C)c1ccc(CNCCCNc2ccnc3cc(Cl)ccc23)cc1")
45
>>> recorded_value("Clc1ccc2c(NCCCNCc3cccnc3)ccnc2c1")
90
>>> recorded_value("COc1ccc(CNCCNc2ccnc3cc(Cl)ccc23)cc1")
406

====

assay.overview: Selectivity index, ratio of IC50 for human HepG2 cells to IC50 for Plasmodium falciparum TM91C235
Type: toxicity, cell-based
assay.setup: read-out: Ratio IC50
Measured selectivity ratio, listed per entry.
measurement.label: selectivity ratio

>>> recorded_value("Clc1ccc2c(NCCCNCc3cnccc3Cl)ccnc2c1")
121
>>> recorded_value("Clc1ccc2c(NCCCNCc3ccncc3)ccnc2c1")
469
>>> recorded_value("COc1ccc(CNCCCNc2ccnc3cc(Cl)ccc23)cc1")
95
>>> recorded_value("Fc1ccc(CNCCCNc2ccnc3cc(Cl)ccc23)cc1")
185
>>> recorded_value("Clc1ccc2c(NCCCNCc3ccccc3)ccnc2c1")
73
>>> recorded_value("CC(C)(C)c1ccc(CNCCNc2ccnc3cc(Cl)ccc23)cc1")
419
>>> recorded_value("COc1ccc(CNCCNc2ccnc3cc(Cl)ccc23)cc1")
362
>>> recorded_value("Clc1ccc2c(NCCNCc3cccnc3)ccnc2c1")
882
>>> recorded_value("Clc1ccc2c(NCCNCc3ccc(Br)cc3)ccnc2c1")
660
>>> recorded_value("Fc1ccc(CNCCNc2ccnc3cc(Cl)ccc23)cc1")
291
>>> recorded_value("Clc1ccc2c(NCCNCc3cnccc3Cl)ccnc2c1")
78
>>> recorded_value("Clc1ccc2c(NCCCNCc3cccnc3)ccnc2c1")
317

====

Test system: Liver microsomes
assay.overview: Half life in human liver microsomes at 10 uM by LC-MS/MS analysis
Assay type: ADME, Microsome
assay.setup: microsomes, 10 µM
measurement.label: t1/2 (min)

>>> recorded_value("Clc1ccc2c(NCCCNCc3ccncc3)ccnc2c1")
9
>>> recorded_value("Clc1ccc2c(NCCCNCc3cnccc3Cl)ccnc2c1")
16
>>> recorded_value("COc1ccncc1CNCCNc1ccnc2cc(Cl)ccc12")
38
>>> recorded_value("Clc1ccc2c(NCCNCc3cnccc3Cl)ccnc2c1")
10
>>> recorded_value("COc1ccc(CNCCCNc2ccnc3cc(Cl)ccc23)cc1")
60
>>> recorded_value("COc1ccc(CNCCNc2ccnc3cc(Cl)ccc23)cc1")
27

====

System: HepG2
assay.overview: Cytotoxicity against human HepG2 cells after 48 hrs by MTT assay
Assay type: cell-based
assay.setup: HepG2, 48 h
measurement.label: IC50 (µM)

>>> recorded_value("COc1ccc(CNCCCNc2ccnc3cc(Cl)ccc23)cc1")
4.81
>>> recorded_value("Fc1ccc(CNCCNc2ccnc3cc(Cl)ccc23)cc1")
16
>>> recorded_value("Clc1ccc2c(NCCCNCc3ccncc3)ccnc2c1")
35.9
>>> recorded_value("CC(C)(C)c1ccc(CNCCCNc2ccnc3cc(Cl)ccc23)cc1")
2.17
>>> recorded_value("Clc1ccc2c(NCCCNCc3ccccc3)ccnc2c1")
2.91
>>> recorded_value("Clc1ccc2c(NCCNCc3cnccc3Cl)ccnc2c1")
6.5
>>> recorded_value("Clc1ccc2c(NCCCNCc3ccc(Br)cc3)ccnc2c1")
4.95
>>> recorded_value("CC(C)(C)c1ccc(CNCCNc2ccnc3cc(Cl)ccc23)cc1")
10.4
>>> recorded_value("Clc1ccc2c(NCCCNCc3cccnc3)ccnc2c1")
23.3
>>> recorded_value("Clc1ccc2c(NCCNCc3ccc(Br)cc3)ccnc2c1")
6.58
>>> recorded_value("Clc1ccc2c(NCCCNCc3cnccc3Cl)ccnc2c1")
3.76
>>> recorded_value("Fc1ccc(CNCCCNc2ccnc3cc(Cl)ccc23)cc1")
5.43
>>> recorded_value("Clc1ccc2c(NCCNCc3ccccc3)ccnc2c1")
19.4
>>> recorded_value("COc1ccc(CNCCNc2ccnc3cc(Cl)ccc23)cc1")
5.82
>>> recorded_value("COc1ccncc1CNCCCNc1ccnc2cc(Cl)ccc12")
4.97
>>> recorded_value("Clc1ccc2c(NCCNCc3ccncc3)ccnc2c1")
153
>>> recorded_value("Clc1ccc2c(NCCNCc3cccnc3)ccnc2c1")
95.9

====

Test system: Liver
assay.overview: Half life in mouse liver microsomes at 10 uM by LC-MS/MS analysis
Format: ADME, Microsome
assay.setup: microsomes, 10 µM
Decide by t1/2: equal to or exceeding 20 min means Fulfilled, less means Not fulfilled.

>>> assigned_label("COc1ccc(CNCCNc2ccnc3cc(Cl)ccc23)cc1")
"Not fulfilled"
>>> assigned_label("COc1ccncc1CNCCNc1ccnc2cc(Cl)ccc12")
"Fulfilled"
>>> assigned_label("Clc1ccc2c(NCCCNCc3cnccc3Cl)ccnc2c1")
"Not fulfilled"
>>> assigned_label("Clc1ccc2c(NCCNCc3cnccc3Cl)ccnc2c1")
"Fulfilled"
>>> assigned_label("COc1ccc(CNCCCNc2ccnc3cc(Cl)ccc23)cc1")
"Not fulfilled"
>>> assigned_label("Clc1ccc2c(NCCNCc3ccccc3)ccnc2c1")
"Fulfilled"
>>> assigned_label("Clc1ccc2c(NCCCNCc3ccncc3)ccnc2c1")
"Not fulfilled"

====

assay.overview: Selectivity index, ratio of IC50 for human HepG2 cells to IC50 for Plasmodium falciparum D2
Format: toxicity, cell-based
assay.setup: read-out: Ratio IC50
Measured selectivity ratio values are reported for all entries that follow.
measurement.label: selectivity ratio

>>> recorded_value("COc1ccc(CNCCCNc2ccnc3cc(Cl)ccc23)cc1")
778
>>> recorded_value("CC(C)(C)c1ccc(CNCCCNc2ccnc3cc(Cl)ccc23)cc1")
100
>>> recorded_value("Fc1ccc(CNCCNc2ccnc3cc(Cl)ccc23)cc1")
608
>>> recorded_value("Clc1ccc2c(NCCNCc3ccc(Br)cc3)ccnc2c1")
1610
>>> recorded_value("CC(C)(C)c1ccc(CNCCNc2ccnc3cc(Cl)ccc23)cc1")
429
>>> recorded_value("Clc1ccc2c(NCCNCc3cccnc3)ccnc2c1")
1800
>>> recorded_value("Clc1ccc2c(NCCCNCc3cnccc3Cl)ccnc2c1")
146
>>> recorded_value("Clc1ccc2c(NCCCNCc3ccncc3)ccnc2c1")
4150
>>> recorded_value("Clc1ccc2c(NCCCNCc3ccccc3)ccnc2c1")
169
>>> recorded_value("COc1ccc(CNCCNc2ccnc3cc(Cl)ccc23)cc1")
1810
>>> recorded_value("Clc1ccc2c(NCCNCc3ccncc3)ccnc2c1")
2530
>>> recorded_value("COc1ccncc1CNCCCNc1ccnc2cc(Cl)ccc12")
1040
>>> recorded_value("Fc1ccc(CNCCCNc2ccnc3cc(Cl)ccc23)cc1")
415
>>> recorded_value("Clc1ccc2c(NCCNCc3cnccc3Cl)ccnc2c1")
102
